- EXPERIMENT DESCRIPTION: in vivo; further: test concentration or dose not given here
- RECORDED CONDITIONS: rat, plasma, po
Assign labels as follows, please: 1 for AUC below 0.3 µg·h/mL; 0 for AUC equal to or exceeding 0.3 µg·h/mL.

COc1ccc(CN(C)C(=O)NC(C(=O)N[C@@H](Cc2ccccc2)[C@@H](O)C[C@H](Cc2ccccc2)NC(=O)OCc2cccnc2)C(C)C)nc1 (stereo partly drawn) = 0
Cc1cnc(COC(=O)NC(C(=O)N[C@@H](Cc2ccccc2)[C@@H](O)C[C@H](Cc2ccccc2)NC(=O)OCc2cccnc2)C(C)C)cn1 (stereo partly drawn) = 1
COc1cncc(CN(C)C(=O)NC(C(=O)N[C@@H](Cc2ccccc2)[C@@H](O)C[C@H](Cc2ccccc2)NC(=O)OCc2cccnc2)C(C)C)c1 (stereo partly drawn) = 1
CCc1nc(COC(=O)NC(C(=O)N[C@@H](Cc2ccccc2)C[C@H](O)[C@H](Cc2ccccc2)NC(=O)OCc2cccnc2)C(C)C)cs1 (stereo partly drawn) = 0

Challenge: Hi there! Is AUC for CC(C)C(NC(=O)OCc1ccccn1)C(=O)N[C@@H](Cc1ccccc1)[C@@H](O)C[C@H](Cc1ccccc1)NC(=O)OCc1ccoc1 (stereo partly drawn) below 0.3 µg·h/mL, do you know?
Response given: 1

Challenge: Hi there! Is AUC for CC(C)C(NC(=O)OCc1cnccn1)C(=O)N[C@@H](Cc1ccccc1)[C@@H](O)C[C@H](Cc1ccccc1)NC(=O)OCc1cccnc1 (stereo partly drawn) below 0.3 µg·h/mL, do you know?
Response given: 1

Challenge: Hi there! Is AUC for Cc1ncc(COC(=O)NC(C(=O)N[C@@H](Cc2ccccc2)[C@@H](O)C[C@H](Cc2ccccc2)NC(=O)OCc2cccnc2)C(C)C)nc1C (stereo partly drawn) below 0.3 µg·h/mL, do you know?
Response given: 1
